# Tested on: P. larvae spores
# experiment_notes: Inhibition of P. larvae spore germination by indole and phenol, IC50 titration (Example 1)
# Type: cell-based, Paenibacillus larvae subsp. pulvifaciens strain ATCC 49843
# run_conditions: Paenibacillus larvae; Table 1; 15 minutes prior to addition of 3 mM uric acid and 3 mM L-tyrosine; standard deviations in parentheses; N/A = no activity under the conditions tested; read-out: IC50
For each entry below, report its IC50 value.
Answers are plain numbers, in µM.

Solved entries:
[[record]]
given_smiles = "Cc1cccc2cc[nH]c12"
value_measured = 280

[[record]]
given_smiles = "Cc1c[nH]c2ccccc12"
value_measured = 380


Kindly consider the entry below.
Prompt: State its IC50: "Cc1ccc2[nH]ccc2c1"
Completion: 370

---

# Test system: honey bee larvae contacted with P. larvae spores
# experiment_notes: Survival of honey bee larvae fed diet with indole analogs and P. larvae spores
# Format: in vivo
# run_conditions: 0.5 mM in larval diet (wj) plus P. larvae spores; 7-day development; p<0.002
measurement_label: survival of honey bee larvae vs P. larvae spores alone

Solved entries:
[[record]]
given_smiles = "O=[N+]([O-])c1ccc2[nH]ccc2c1"
value_measured = "increased survival"

[[record]]
given_smiles = "Clc1ccc2cc[nH]c2c1"
value_measured = "increased survival"

[[record]]
given_smiles = "Brc1ccc2cc[nH]c2c1"
value_measured = "increased survival"

[[record]]
given_smiles = "Brc1ccc2[nH]ccc2c1"
value_measured = "increased survival"


Kindly consider the entry below.
Prompt: Write down the reported survival of honey bee larvae vs P. larvae spores alone (system: honey bee larvae contacted with P. larvae spores) of "Clc1ccc2[nH]ccc2c1"
Completion: increased survival

---

# Tested on: P. larvae spores
# experiment_notes: Inhibition of P. larvae spore germination, IC50 titration of indole analogs (Example 2)
# Assay type: cell-based, Paenibacillus larvae subsp. pulvifaciens strain ATCC 49843
# run_conditions: Paenibacillus larvae, read-out: IC50 inhibition of P. larvae spore germination (previously shown)
# Description: After a 15 minute incubation, the spores were treated with 3 mM L-tyrosine-3 mM uric acid. The germination rate was set to 100% for P. larvae spores germinated in the absence of inhibitor. Germination rates for other conditions were divided by the uninhibited maximum germination rate obtained with 3 mM L-tyrosine-3 mM uric acid, and are reported as percent germination. Percent germination was plotted against the inhibitor concentrations.
measurement_label: IC50
Could you give the number and then its unit, please?

Prompt: State its IC50: "c1ccc2[nH]ccc2c1"
Completion: 400 µM

---

For each entry below, report its pIC50 value.
# Tested on: P. larvae spores
# experiment_notes: Inhibition of P. larvae spore germination, IC50 titration of indole analogs (Example 2)
# Type: cell-based, Paenibacillus larvae subsp. pulvifaciens strain ATCC 49843
# run_conditions: Paenibacillus larvae; Table 2; saturating uric acid/L-tyrosine concentrations; read-out: IC50
Numbers only, as −log10 of the molar value.

[[record]]
compound = "O=[N+]([O-])c1ccc2[nH]ccc2c1"
measurement_label = "pIC50"
value_measured = 4.15

[[record]]
compound = "Fc1ccc2[nH]ccc2c1"
measurement_label = "pIC50"
value_measured = 3.92

[[record]]
compound = "Clc1ccc2[nH]ccc2c1"
measurement_label = "pIC50"
value_measured = 4.52

[[record]]
compound = "Fc1ccc2cc[nH]c2c1"
measurement_label = "pIC50"
value_measured = 3.92

[[record]]
compound = "N#Cc1cccc2[nH]ccc12"
measurement_label = "pIC50"
value_measured = 3.70


// batch mode: one pIC50 value per listed entry
1. Oc1ccc2[nH]ccc2c1 [5-hydroxyindole]
2. Brc1ccc2cc[nH]c2c1
3. N#Cc1ccc2cc[nH]c2c1
4. Clc1ccc2cc[nH]c2c1

Completion:
[3.26, 4.22, 3.96, 4.70]
